Target or system UniProt:Q92793; metric IC50; compiled from varied reports.
quantity: IC50 (nM)

Answered examples (2):
1. Cc1cn(C)c2c1C(=O)N(c1cc(C)c(=O)n(C)c1)C2c1ccc(Cl)cc1 (stereo not drawn): 1900
2. COc1ccc(C2(C(=O)N3C[C@H](F)C[C@@H]3C(=O)Nc3ccc4cc[nH]c4n3)CCCCC2)cc1: 51

I: CN1C(=O)CCc2ccc(N3CCCc4cc(-c5cnn(C)c5)c(C(F)F)cc43)cc21
II: CNC(=O)c1c[nH]c2c(C(C)C)nc(N3CCCc4cc(-c5cnn(C)c5)c(C(F)F)cc43)cc12
Exercise: Given the listed records, identify the one among I and II with higher IC50. Returns: label corresponding to the selected item.
Key: I

I: CC(=O)N1CC(n2cc(C3CC3)c3c2C(c2ccc(Cl)cc2)N(c2cc(C)c4nnc(C)n4c2)C3=O)C1 (stereo not drawn)
II: Cc1cc(N2C(=O)c3c(C4CC4)c(C4=CCOCC4)n(C)c3C2c2ccc(Cl)cc2)cn2c(C)nnc12 (stereo not drawn)
Exercise: Would you kindly point out which of I and II has the smaller IC50 figure? Returns: label corresponding to the selected item.
Key: II

1: CCc1cc(-c2ccccc2C)cc2c1OCCN(C(=O)NC)C2
2: CNC(=O)N1Cc2cc(N3CCCc4cc(-c5cnn(C)c5)c(C(F)F)cc43)ccc2OC(C)C1 (stereo not drawn)
3: C#Cc1cc(N2CCCc3cc(-c4cnn(C)c4)c(C(F)F)cc32)cc2c1n(C)c(=O)n2C
4: [2H]C([2H])([2H])Oc1ccc(C2(C(=O)N3C[C@H](F)C[C@@H]3C(=O)Nc3ccc4[nH]ncc4n3)CCC(F)(F)CC2)cc1F
5: COc1ccc(C2(C(=O)N3CCC[C@@H]3C(=O)Nc3ccn(C)n3)CCCC2)cc1
Exercise: Rank the 5 molecules: largest IC50 first, smallest last. # list labels per requested ordering
Key: 5, 1, 4, 2, 3

----------
Target or system CREB-binding protein (Homo sapiens, UniProt Q92793); metric IC50; compiled from varied reports.
quantity: IC50 (nM)

1. Cc1cc(N2C(=O)c3ccn(C)c3C2c2ccc(Cl)cc2)cn(C)c1=O (stereo not shown): 1430
2. COc1cccc(-c2cc3c(n2C)C(c2ccc(Cl)cc2)N(c2cc(C)c(=O)n(C)c2)C3=O)n1 (stereo not shown): 940
3. Cc1c[nH]c2c1C(=O)N(c1cc(C)c3nnc(C)n3c1)C2c1ccc(Cl)cc1 (stereo not shown): 8200
4. Cc1cc(N2C(=O)c3ccn(C)c3C2c2ccccc2)cn(C)c1=O (stereo not shown): 26800
5. Cn1ccc2c1C(c1ccc(Cl)c(F)c1)N(c1cc(Cl)c(=O)n(C)c1)C2=O (stereo not shown): 1450
6. CNC(=O)c1c[nH]c2c(C)cc(N3CCCc4cc(-c5cnn(C)c5)c(C(F)F)cc43)nc12: 4
7. Cc1ccc(C2c3c(ccn3C)C(=O)N2c2cc(C)c(=O)n(C)c2)cc1 (stereo not shown): 4500
8. CNC(=O)c1cn(C)c2cc(C)c(N3CCCc4cc(-c5cnn(C)c5)c(C(F)F)cc43)cc12: 9
9. CNC(=O)N1CCOc2ccc(-c3cccc4nn(C)cc34)cc2C1: 296
10. CNC(=O)N1CCOc2c(cc(-c3ccccc3C)cc2C(C)C)C1: 201

P: CNC(=O)c1c[nH]c2ncc(N3CCCc4cc(-c5cnn(C)c5)c(C(F)F)cc43)nc12
Q: COc1ccc(C2(C(=O)N3CC(=O)C[C@@H]3C(=O)Nc3ccc4[nH]ccc4n3)CCC(F)(F)CC2)cc1
Exercise: Given the listed records, identify the one among P and Q with higher IC50. Returns: label corresponding to the selected item.
Key: Q
